Molecular target: rat CB2 receptors (Rattus norvegicus)
Construct: expressed in transfected cells; membrane preparation
Sequence (Q9QZN9 1-360): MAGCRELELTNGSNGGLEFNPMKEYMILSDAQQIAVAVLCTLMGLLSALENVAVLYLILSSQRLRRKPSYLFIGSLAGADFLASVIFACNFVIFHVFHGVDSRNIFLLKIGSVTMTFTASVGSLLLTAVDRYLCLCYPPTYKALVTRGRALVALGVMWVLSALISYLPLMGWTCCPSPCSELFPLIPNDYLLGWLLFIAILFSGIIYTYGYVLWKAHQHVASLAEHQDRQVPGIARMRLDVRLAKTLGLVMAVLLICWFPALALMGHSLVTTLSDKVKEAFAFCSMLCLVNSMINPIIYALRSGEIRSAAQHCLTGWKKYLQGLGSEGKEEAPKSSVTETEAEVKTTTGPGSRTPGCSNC
Assay: rat CB2 radioligand binding assay
value type: Ki

As a guide, the following entries are already answered.
structure_smiles_string=Cn1c(C(C)(C)C)c/c(=N\C(=O)c2cc(C(F)(F)F)ccc2CCC(C)(C)O)n1CC1CCC1 recorded_value="17.2 nM"
structure_smiles_string=CCCCn1nc(C(C)(C)C)s/c1=N\C(=O)c1cc(C(F)(F)F)ccc1CN1CC(O)C1 recorded_value="0.8 nM"
structure_smiles_string=Cn1c(C(C)(C)C)c/c(=N\C(=O)c2cc(C(F)(F)F)ccc2/C=C/C(C)(C)O)n1CC1CC1 recorded_value="37.2 nM"

compound Cn1c(C(C)(C)C)c/c(=N\C(=O)c2cc(C(F)(F)F)ccc2/C=C/C(C)(C)O)n1CC1CCC1 , Ki observed: 3.29 nM

compound CCCCn1nc(C(C)(C)C)s/c1=N\C(=O)c1cc(C(F)(F)F)ccc1CN1CC[C@@H](O)C1 , Ki observed: 3.85 nM

compound CCCCn1/c(=N/C(=O)c2cc(C(F)(F)F)ccc2CN2CC(O)C2)cc(C(C)(C)C)n1C , Ki observed: 87.5 nM

compound CCCCn1/c(=N/C(=O)c2cc(C(F)(F)F)ccc2COCC(C)(C)O)cc(C(C)(C)C)n1C , Ki observed: 17.8 nM

compound CCCCCn1/c(=N/C(=O)c2cc(C(F)(F)F)ccc2CCC(C)(C)O)cc(C(C)(C)C)n1C , Ki observed: 25 nM

compound CCCCn1nc(C(C)(C)C)s/c1=N\C(=O)c1cc(C(F)(F)F)ccc1CN1CC(C)(O)C1 , Ki observed: 1.45 nM

compound CCCn1/c(=N/C(=O)c2cc(C(F)(F)F)ccc2/C=C/C(C)(C)O)cc(C(C)(C)C)n1C , Ki observed: 89.6 nM

compound CCCCn1/c(=N/C(=O)c2cc(C(F)(F)F)ccc2CC(=O)OC(C)(C)C)cc(C(C)(C)C)n1C , Ki observed: 80.2 nM

====

Target: human CB2 receptors (Homo sapiens)
Construct: expressed in transfected cells; membrane preparation
Assay: human CB2 radioligand binding assay
Details: competition with 0.5 nM [3H]CP-55,940, HEK293 membranes expressing human CB2; read-out: human CB2 binding (Ki)
Readings of pKi for the listed compounds
Lab note — pKi values are minus log10 of concentrations in M.

As a guide, the following entries are already answered.
structure_smiles_string=COCCCn1/c(=N/C(=O)c2cc(C(F)(F)F)ccc2/C=C/C(C)(C)O)cc(C(C)(C)C)n1C recorded_value=6.95
structure_smiles_string=CCCCn1/c(=N/C(=O)c2cc(C(F)(F)F)ccc2CN2CC(O)C2)cc(C(C)(C)C)n1C recorded_value=6.93
structure_smiles_string=CCCCn1/c(=N/C(=O)c2cc(C(F)(F)F)ccc2CC(=O)OC(C)(C)C)cc(C(C)(C)C)n1C recorded_value=6.57
structure_smiles_string=CCCCn1/c(=N/C(=O)c2cc(C(F)(F)F)ccc2CN2CC(C)(O)C2)cc(C(C)(C)C)n1C recorded_value=6.85

compound CCCCn1/c(=N/C(=O)c2cc(C(F)(F)F)ccc2CCC(C)(C)O)cc(C(C)(C)C)n1C , pKi observed: 6.88

====

Target: rat CB2 receptors (Rattus norvegicus, UniProt Q9QZN9)
Construct: expressed in transfected cells; membrane preparation
Sequence (Q9QZN9 1-360): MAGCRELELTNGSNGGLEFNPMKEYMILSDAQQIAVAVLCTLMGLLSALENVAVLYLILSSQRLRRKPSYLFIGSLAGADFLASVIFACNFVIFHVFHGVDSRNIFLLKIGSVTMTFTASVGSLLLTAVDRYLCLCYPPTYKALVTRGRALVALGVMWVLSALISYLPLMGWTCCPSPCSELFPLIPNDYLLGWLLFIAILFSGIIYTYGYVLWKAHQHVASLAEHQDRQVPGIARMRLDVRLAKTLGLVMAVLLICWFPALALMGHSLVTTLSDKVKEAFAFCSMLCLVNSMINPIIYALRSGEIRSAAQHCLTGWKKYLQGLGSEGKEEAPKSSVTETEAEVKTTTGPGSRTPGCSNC
Experiment: rat CB2 radioligand binding assay
Conditions: competition with 0.5 nM [3H]CP-55,940, HEK293 membranes expressing rat CB2; read-out: rat CB2 binding (Ki)
Readings of pKi for the listed molecules
Lab note — pKi values are minus log10 of concentrations in M.

molecule="CCCCn1/c(=N/C(=O)c2cc(C(F)(F)F)ccc2CN2CC(C)(O)C2)cc(C(C)(C)C)n1C [Example 12]" value_type=pKi recorded_value=6.75
molecule="COCCCn1/c(=N/C(=O)c2cc(C(F)(F)F)ccc2CCC(C)(C)O)cc(C(C)(C)C)n1C [Example 15]" value_type=pKi recorded_value=6.66
molecule="CCCCn1/c(=N/C(=O)c2cc(C(F)(F)F)ccc2CCC(C)(C)O)cc(C(C)(C)C)n1C [Example 1]" value_type=pKi recorded_value=6.99

Could you now look at the following molecule, please?
I looked up CCCCn1/c(=N/C(=O)c2cc(C(F)(F)F)ccc2CN2CC[C@@H](O)C2)cc(C(C)(C)C)n1C [Example 13] and its pKi for rat CB2 receptors (Rattus norvegicus, UniProt Q9QZN9) was 6.34

====

Biological target: human CB2 receptors (Homo sapiens, UniProt P34972)
Construct: expressed in transfected cells; membrane preparation
Sequence (P34972 whole entry): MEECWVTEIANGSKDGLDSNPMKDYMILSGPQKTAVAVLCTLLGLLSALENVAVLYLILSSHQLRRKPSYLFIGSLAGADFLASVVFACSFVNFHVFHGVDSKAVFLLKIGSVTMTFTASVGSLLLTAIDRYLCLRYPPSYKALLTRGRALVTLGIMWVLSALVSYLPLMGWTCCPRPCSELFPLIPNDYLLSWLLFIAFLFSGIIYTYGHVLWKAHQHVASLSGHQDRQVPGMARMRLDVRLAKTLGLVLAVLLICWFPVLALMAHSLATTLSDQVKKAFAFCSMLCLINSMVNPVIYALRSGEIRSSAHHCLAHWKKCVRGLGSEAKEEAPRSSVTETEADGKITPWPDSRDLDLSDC
Experiment: human CB2 radioligand binding assay
value type: Ki (µM)
The reply should be a number in µM, with the unit left off.

structure_smiles_string=CCCCCn1/c(=N/C(=O)c2cc(C(F)(F)F)ccc2CCC(C)(C)O)cc(C(C)(C)C)n1C value_type=Ki recorded_value=0.0322
structure_smiles_string=CCCCn1nc(C(C)(C)C)s/c1=N\C(=O)c1cc(C(F)(F)F)ccc1CN1CC[C@@H](O)C1 value_type=Ki recorded_value=0.0153

compound CCCCn1/c(=N/C(=O)c2cc(C(F)(F)F)ccc2CCC(=O)OCC)cc(C(C)(C)C)n1C , Ki observed: 0.0533

====

Molecular target: rat CB2 receptors (Rattus norvegicus, UniProt Q9QZN9)
Construct: expressed in transfected cells; membrane preparation
Assay: rat CB2 radioligand binding assay
Protocol: (i) In Vitro Methods—CB2 and CB1 Radioligand Binding Assays: The CB1 and CB2 radioligand binding assays described herein are utilized to ascertain the selectivity of compounds of the present application for binding to CB2 relative to CB1 receptors. HEK293 cells stably expressing rat CB2 receptors were grown until a confluent monolayer was formed. […] The bound activity was counted in a TopCount using Microscint-20. […]
Readings of pKi for the listed molecules
Lab note — pKi values are minus log10 of concentrations in M.

As a guide, the following entries are already answered.
molecule="CCCCn1nc(C(C)(C)C)s/c1=N\\C(=O)c1cc(C(F)(F)F)ccc1CN1CC[C@H](O)C1 [Example 18]" target_or_system="rat CB2 receptors (Rattus norvegicus, UniProt Q9QZN9)" value_type=pKi recorded_value=8.80
molecule="CCCCn1nc(C(C)(C)C)s/c1=N\\C(=O)c1cc(C(F)(F)F)ccc1CN1CC(C(=O)OC)C1 [Example 21]" target_or_system="rat CB2 receptors (Rattus norvegicus, UniProt Q9QZN9)" value_type=pKi recorded_value=8.75
molecule="COCCCn1/c(=N/C(=O)c2cc(C(F)(F)F)ccc2/C=C/C(C)(C)O)cc(C(C)(C)C)n1C [Example 14]" target_or_system="rat CB2 receptors (Rattus norvegicus, UniProt Q9QZN9)" value_type=pKi recorded_value=7.51

Could you now look at the following molecule, please?
I looked up CCCCn1nc(C(C)(C)C)s/c1=N\C(=O)c1cc(C(F)(F)F)ccc1CO [Example 20] and its pKi for rat CB2 receptors (Rattus norvegicus, UniProt Q9QZN9) was 9.24

====

Target: human CB2 receptors (Homo sapiens, UniProt P34972)
Construct: expressed in transfected cells; membrane preparation
Test: human CB2 radioligand binding assay
value type: log10 Ki (log10 of the value in nM)
Log10 applied to Ki; unit prior to transform: nM.

As a guide, the following entries are already answered.
structure_smiles_string=CCCCn1nc(C(C)(C)C)s/c1=N\C(=O)c1cc(C(F)(F)F)ccc1CN1CC[C@H](O)C1 target_or_system="human CB2 receptors (Homo sapiens, UniProt P34972)" recorded_value=1.17
structure_smiles_string=Cn1c(C(C)(C)C)c/c(=N\C(=O)c2cc(C(F)(F)F)ccc2/C=C/C(C)(C)O)n1CC1CC1 target_or_system="human CB2 receptors (Homo sapiens, UniProt P34972)" recorded_value=1.62
structure_smiles_string=CCCCn1nc(C(C)(C)C)s/c1=N\C(=O)c1cc(C(F)(F)F)ccc1CN1CC(C)(O)C1 target_or_system="human CB2 receptors (Homo sapiens, UniProt P34972)" recorded_value=0.77
structure_smiles_string=CCCCn1/c(=N/C(=O)c2cc(C(F)(F)F)ccc2COCC(C)(C)O)cc(C(C)(C)C)n1C target_or_system="human CB2 receptors (Homo sapiens, UniProt P34972)" recorded_value=1.40

compound Cn1c(C(C)(C)C)c/c(=N\C(=O)c2cc(C(F)(F)F)ccc2CCC(C)(C)O)n1CC1CC1 , log10 Ki observed: 2.18

compound CCCCn1nc(C(C)(C)C)s/c1=N\C(=O)c1cc(C(F)(F)F)ccc1CN1CC(C(C)(C)O)C1 , log10 Ki observed: 0.73

compound CCCCn1nc(C(C)(C)C)s/c1=N\C(=O)c1cc(C(F)(F)F)ccc1CN1CC(O)C1 , log10 Ki observed: 0.21

compound CCCn1/c(=N/C(=O)c2cc(C(F)(F)F)ccc2/C=C/C(C)(C)O)cc(C(C)(C)C)n1C , log10 Ki observed: 2.44

compound Cn1c(C(C)(C)C)c/c(=N\C(=O)c2cc(C(F)(F)F)ccc2CN2CC(O)C2)n1CC1CC1 , log10 Ki observed: 1.48

compound Cn1c(C(C)(C)C)c/c(=N\C(=O)c2cc(C(F)(F)F)ccc2CN2CC(C)(O)C2)n1CC1CC1 , log10 Ki observed: 2.27

Data provenance: patent US8288428B2
